# target_desc: ROCK2 (Homo sapiens)
# assay_summary: ROCK2 kinase inhibition assay (LABCHIP 3000 Reader, FITC peptide substrate)
property_label: IC50

[in] Recorded IC50 of COc1cccc(-c2ccc(C(N)=O)c(OC3CC4(CC(NC(=O)c5cnn6cc(OCC(C)(C)O)ccc56)C4)C3)c2)c1 (stereo not shown) , please.
[out] 5 to 50 nM

[in] Can you handle COc1ccc(C(N)=O)c(O[C@H]2CC3(C[C@H](NC(=O)c4cnn5c(C6CC6)c(OCC(C)(C)O)ccc45)C3)C2)n1 (stereo partly shown) next?
[out] < 5 nM

---

Here, each record is paired with measured pIC50 data.
# target_desc: ROCK2 (Homo sapiens, UniProt O75116)
# Sequence (O75116 whole entry, species assumed): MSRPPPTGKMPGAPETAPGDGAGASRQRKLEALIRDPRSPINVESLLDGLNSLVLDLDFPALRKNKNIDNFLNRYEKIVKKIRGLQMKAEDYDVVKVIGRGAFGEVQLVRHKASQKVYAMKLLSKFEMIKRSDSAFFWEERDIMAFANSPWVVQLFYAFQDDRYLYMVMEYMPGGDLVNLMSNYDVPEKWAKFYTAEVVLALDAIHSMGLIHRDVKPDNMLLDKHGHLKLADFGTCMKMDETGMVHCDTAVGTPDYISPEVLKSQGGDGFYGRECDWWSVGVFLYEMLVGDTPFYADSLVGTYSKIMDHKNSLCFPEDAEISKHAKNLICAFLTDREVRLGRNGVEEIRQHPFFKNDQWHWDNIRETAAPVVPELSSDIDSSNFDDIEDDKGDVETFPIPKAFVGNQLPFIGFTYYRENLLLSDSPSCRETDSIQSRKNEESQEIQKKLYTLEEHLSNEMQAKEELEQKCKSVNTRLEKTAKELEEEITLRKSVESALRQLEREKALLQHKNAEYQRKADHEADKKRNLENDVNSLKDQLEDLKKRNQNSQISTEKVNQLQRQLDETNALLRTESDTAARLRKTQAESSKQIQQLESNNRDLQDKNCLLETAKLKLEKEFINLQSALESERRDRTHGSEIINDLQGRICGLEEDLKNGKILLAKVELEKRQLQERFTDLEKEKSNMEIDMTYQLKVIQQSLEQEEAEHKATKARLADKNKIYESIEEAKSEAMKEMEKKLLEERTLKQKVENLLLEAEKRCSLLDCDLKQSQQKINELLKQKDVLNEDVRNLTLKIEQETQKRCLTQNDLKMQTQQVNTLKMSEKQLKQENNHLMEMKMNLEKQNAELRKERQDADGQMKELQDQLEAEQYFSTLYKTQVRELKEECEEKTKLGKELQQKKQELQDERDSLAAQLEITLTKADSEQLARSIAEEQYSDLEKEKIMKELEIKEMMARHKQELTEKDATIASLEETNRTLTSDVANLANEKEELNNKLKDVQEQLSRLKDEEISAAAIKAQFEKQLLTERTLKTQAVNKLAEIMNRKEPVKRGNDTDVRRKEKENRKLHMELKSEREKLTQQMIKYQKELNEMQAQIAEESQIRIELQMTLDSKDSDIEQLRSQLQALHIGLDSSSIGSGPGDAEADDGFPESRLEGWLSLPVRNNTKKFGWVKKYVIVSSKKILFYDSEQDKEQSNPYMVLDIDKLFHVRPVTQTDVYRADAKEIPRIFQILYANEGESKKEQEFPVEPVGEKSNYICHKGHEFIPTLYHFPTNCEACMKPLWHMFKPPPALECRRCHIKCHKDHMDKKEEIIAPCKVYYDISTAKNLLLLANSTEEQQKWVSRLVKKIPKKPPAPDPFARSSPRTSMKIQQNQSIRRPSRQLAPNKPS
# assay_summary: ROCK2 kinase inhibition assay (LABCHIP 3000 Reader, FITC peptide substrate);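 further: rho kinase reaction read by separating phosphorylated from unphosphorylated peptide on chip, with inhibition of kinase activity computed per concentration across a dose-response series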
pIC50: −log10 of the molar value.

N#Cc1cc(C(=O)N[C@H]2CC3(C2)C[C@H](Oc2ncccc2C(N)=O)C3)cc(-c2cnn(C(F)F)c2)c1 (some centres unmarked) = > 8.30
CN1CCN(c2ccn3c(C(=O)N[C@H]4CC5(C4)C[C@H](Oc4ncccc4C(N)=O)C5)cnc3c2)CC1 (some centres unmarked) = 7.30 to 8.30
[H][C@]1(Oc2ncccc2C(N)=O)C[C@@]2(C[C@H](NC(=O)c3cnc4c(C5CC5)c(OCC(C)(C)F)ccn34)C2)C1 (some centres unmarked) = 7.30 to 8.30
[H][C@]1(Oc2ncccc2C(N)=O)C[C@@]2(C[C@H](NC(=O)c3cn4cc(C(N)=O)ccc4n3)C2)C1 (some centres unmarked) = 5.60 to 6.60
CC(C)(O)COc1ccc2c(C(=O)NC3CC4(C3)CC(Oc3cc(CCCN5CCOCC5)ccc3C(N)=O)C4)cnn2c1 (centres unmarked) = 6.60 to 7.30

[in] Recorded pIC50 of COC(=O)c1cncc(-c2ccc(C(N)=O)c(OC3CC4(CC(NC(=O)c5cnn6cc(OCC(C)(C)O)ccc56)C4)C3)c2)c1 (centres unmarked) , please.
[out] 7.30 to 8.30

[in] Can you handle CC(C)(O)COc1ccc2c(C(=O)NC3CC4(C3)CC(Oc3c(F)cc(F)cc3C(N)=O)C4)cnn2c1 (centres unmarked) next?
[out] 5.60 to 6.60

[in] Can you handle NC(=O)c1cccnc1OC1CC2(CC(NC(=O)N3CCc4ccccc43)C2)C1 (centres unmarked) next?
[out] 6.60 to 7.30

The values you see were collected from patent US10829501B2.
